The measured values listed here are drawn from patent US20240287154A1.

- Target of assay: human MC4R (Homo sapiens)
- Sequence (P32245 whole entry): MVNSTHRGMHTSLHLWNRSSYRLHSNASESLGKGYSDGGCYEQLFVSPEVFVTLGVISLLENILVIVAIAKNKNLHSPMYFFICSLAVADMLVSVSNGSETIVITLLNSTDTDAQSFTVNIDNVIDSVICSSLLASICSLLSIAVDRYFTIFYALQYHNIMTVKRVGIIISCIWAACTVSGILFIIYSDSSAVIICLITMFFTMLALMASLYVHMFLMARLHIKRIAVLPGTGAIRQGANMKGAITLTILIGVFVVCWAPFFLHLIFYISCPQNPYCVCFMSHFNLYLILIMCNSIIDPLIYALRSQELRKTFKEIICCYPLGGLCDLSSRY
- Experiment: Intracellular cAMP levels in live cells, MC3R selectivity relative to MC4R
- Assay type: cell-based
- Protocol conditions: cAMP assays in human MC3R and human MC4R stable cell lines
Non-standard residues stand in square brackets, D forms with d. Residues, ends and D or L forms follow the SMILES beside them. Phe(4-I) = N[C@@H](Cc1ccc(I)cc1)C(=O)O; Nle = CCCC[C@H](N)C(=O)O
Endpoint: MC3R selectivity (relative to MC4R)

Compound	MC3R selectivity (relative to MC4R)
CCCC[C@H](NC(C)=O)C(=O)N[C@@H](C(=O)N[C@@H](Cc1c[nH]cn1)C(=O)N[C@@H](Cc1ccccc1)C(=O)N[C@@H](CCCNC(=N)N)C(=O)N[C@H](Cc1c[nH]c2ccccc12)C(=O)N[C@@H](CC(=O)O)C(=O)N[C@@H](CCCNC(=N)N)C(=O)N[C@@H](Cc1ccccc1)C(=O)NCC(=O)O)C(C)C [CTX-1181] (Ac-[Nle][dV]HFR[dW]DRFG-OH)	718

[ask] Query: MC3R selectivity (relative to MC4R); subject: CCCC[C@H](NC(C)=O)C(=O)N[C@H](C)C(=O)N[C@@H](CCCNC(=N)N)C(=O)N[C@@H](Cc1ccc(I)cc1)C(=O)N[C@@H](CCCNC(=N)N)C(=O)N[C@H](Cc1c[nH]c2ccccc12)C(=O)N[C@@H](CC(=O)O)C(=O)N[C@@H](CCCNC(=N)N)C(=O)N[C@@H](Cc1ccccc1)C(=O)NCC(=O)O [CTX-1197] (Ac-[Nle][dA]R[Phe(4-I)]R[dW]DRFG-OH)
[reply] 250

###

- Experiment: Mouse plasma stability (A)
- Protocol conditions: pooled mouse plasma, 37° C., 0 min
- Method: Pooled mouse plasma was prepared and stored at −80° C. prior to use. 396 μL mouse plasma was incubated at 37° C. for 5 minutes in 1.5 mL microcentrifuge tubes. 4 μL of 100 μM test or control compound/peptide was added to each tube and incubated for 0.5, 15, 30, 60, 120, or 240 minutes. […] The natural log peak area ratio (compound peak […] area/internal standard peak area) was plotted against time and the gradient of the line determined.
Non-standard residues stand in square brackets, D forms with d. Residues, ends and D or L forms follow the SMILES beside them. Nle = CCCC[C@H](N)C(=O)O
Quick reference for Mouse Plasma Stability, time point 0 min among some compounds
The reply must contain the numeric value and, after it, the unit.

Compound	Result value
CCCC[C@H](NC(=O)[C@@H](NC(=O)[C@@H](N)Cc1ccc(O)cc1)C(C)C)C(=O)N[C@H](C)C(=O)N[C@@H](Cc1c[nH]cn1)C(=O)N[C@@H](Cc1ccccc1)C(=O)N[C@@H](CCCNC(=N)N)C(=O)N[C@H](Cc1c[nH]c2ccccc12)C(=O)N[C@@H](CC(=O)O)C(=O)N[C@@H](CCCNC(=N)N)C(=O)N[C@@H](Cc1ccccc1)C(=O)NCC(=O)O [CTX-1103] (H-YV[Nle][dA]HFR[dW]DRFG-OH)	100%

[ask] Look at this compound and give its reported Mouse Plasma Stability, time point 0 min. CCCC[C@H](NC(=O)[C@@H](NC(=O)[C@@H](N)Cc1ccc(O)cc1)C(C)C)C(=O)N[C@H](C)C(=O)N[C@@H](Cc1c[nH]cn1)C(=O)N[C@@H](Cc1ccccc1)C(=O)N[C@@H](CCCNC(=N)N)C(=O)N[C@H](Cc1c[nH]c2ccccc12)C(=O)N[C@@H](CC(=O)O)C(N)=O [CTX-1108, Tyr-Val-Nle-D-Ala-His-Phe-Arg-D-Trp-Asp] (H-YV[Nle][dA]HFR[dW]D-NH2)
[reply] 100%

[ask] What value of measured Mouse Plasma Stability, time point 0 min is listed for CC(C)[C@H](NC(=O)[C@@H](N)Cc1ccc(O)cc1)C(=O)N[C@@H](CCC(=O)O)C(=O)NCC(=O)N[C@@H](Cc1c[nH]cn1)C(=O)N[C@@H](Cc1ccccc1)C(=O)N[C@@H](CCCNC(=N)N)C(=O)N[C@H](Cc1c[nH]c2ccccc12)C(=O)N[C@@H](CC(=O)O)C(=O)N[C@@H](CCCNC(=N)N)C(=O)N[C@@H](Cc1ccccc1)C(=O)NCC(N)=O [CTX-1105] (H-YVEGHFR[dW]DRFG-NH2) ?
[reply] 100%
